Reference source for all entries: patent US20030229005A1

test target: stromelysin 1 (UniProt P08254 100-477, limits assumed)
Sequence (P08254 100-477 limits assumed): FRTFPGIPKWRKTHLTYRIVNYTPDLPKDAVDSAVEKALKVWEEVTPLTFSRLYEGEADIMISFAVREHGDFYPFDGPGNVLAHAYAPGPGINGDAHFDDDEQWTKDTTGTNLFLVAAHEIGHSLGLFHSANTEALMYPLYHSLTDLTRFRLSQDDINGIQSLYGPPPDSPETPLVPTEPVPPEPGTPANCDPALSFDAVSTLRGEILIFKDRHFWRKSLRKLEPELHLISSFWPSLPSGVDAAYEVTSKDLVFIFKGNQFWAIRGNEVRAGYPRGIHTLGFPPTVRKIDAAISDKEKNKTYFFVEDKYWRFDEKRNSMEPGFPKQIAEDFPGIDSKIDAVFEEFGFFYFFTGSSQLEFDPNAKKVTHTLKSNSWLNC
test details: cell-based or functional assay
The star is where a group is joined. Dnp = O=[N+]([O-])c1ccc(*)c([N+](=O)[O-])c1
Listed next: entries and their corresponding Selectivity v. Coll-3.
State the answer as a number, implicitly in unitless.

Examples from the recorded data:
Dnp-GPLQMRG-NH2 (SMILES CSCC[C@H](NC(=O)[C@H](CCC(N)=O)NC(=O)[C@H](CC(C)C)NC(=O)[C@@H]1CCCN1C(=O)CNc1ccc([N+](=O)[O-])cc1[N+](=O)[O-])C(=O)N[C@@H](CCCNC(=N)N)C(=O)NCC(N)=O) [Dnp-GPLQMRG-NH2] ... 311
Dnp-GPHPMRG-NH2 (SMILES CSCC[C@H](NC(=O)[C@@H]1CCCN1C(=O)[C@H](Cc1c[nH]cn1)NC(=O)[C@@H]1CCCN1C(=O)CNc1ccc([N+](=O)[O-])cc1[N+](=O)[O-])C(=O)N[C@@H](CCCNC(=N)N)C(=O)NCC(N)=O) [Dnp-GPHPMRG-NH2] ... 287

// next entry
Query: Dear colleague, I am looking for the recorded Selectivity v. Coll-3 of the following binder: Dnp-GPKGMRG-NH2 (SMILES CSCC[C@H](NC(=O)CNC(=O)[C@H](CCCCN)NC(=O)[C@@H]1CCCN1C(=O)CNc1ccc([N+](=O)[O-])cc1[N+](=O)[O-])C(=O)N[C@@H](CCCNC(=N)N)C(=O)NCC(N)=O) [Dnp-GPKGMRG-NH2]
Reply: 13200
